system: MDA-MB-435; assay: Cytotoxicity against human MDA-MB-435 cells after 3 days in serum free conditions by MTT assay; assay type: functional, cell-based; conditions: MDA-MB-435, 72 h
pIC50: −log10 of the molar value.

[
  {
    "COMPOUND": "CCCCCCCCCCCCCCCCCCOCC(COP(=O)([O-])OCC[N+](C)(C)C)OC (centres undefined)",
    "TESTED_SYSTEM": "MDA-MB-435",
    "pIC50": 4.92
  },
  {
    "COMPOUND": "CCCCCCCCCCCCCCCCOC[C@@H](O)COP(=O)(O)OC[C@H](O)CO",
    "TESTED_SYSTEM": "MDA-MB-435",
    "pIC50": 4.14
  },
  {
    "COMPOUND": "CCCCCCCCCCCCCCCCOC[C@@H](O)COP(=O)(O)OC[C@@H](O)CO",
    "TESTED_SYSTEM": "MDA-MB-435",
    "pIC50": 4.33
  },
  {
    "COMPOUND": "CCCCCCCCCCCCCCCCOP(=O)([O-])OCC[N+](C)(C)C",
    "TESTED_SYSTEM": "MDA-MB-435",
    "pIC50": 4.64
  }
]

Recorded values, source ChEMBL document CHEMBL1139481.
